Kindly state viability for each of the entries shown.
details: % Viability non-Wnt responsive cells; further: test concentration or dose not given here
Where a SMILES comes first, the peptide text is derived from it.
One number for each entry, in %.

CC[C@H](C)[C@H](NC(=O)[C@H](CC(C)C)NC(=O)[C@H](Cc1ccccc1)NC(=O)[C@H](Cc1c[nH]c2ccccc12)NC(=O)[C@@H](N)CCSC)C(=O)N[C@@H](Cc1c[nH]cn1)C(=O)N[C@@H](Cc1ccccc1)C(=O)N[C@@H](Cc1c[nH]c2ccccc12)C(=O)NCC(=O)O [compound 163] (H-MWFLIHFWG-OH)	100

# next compound below
Query block: Fill blank: measured viability of the compound CC[C@H](C)[C@H](NC(=O)[C@H](CC(C)C)NC(=O)[C@@H](NC(=O)[C@H](Cc1c[nH]c2ccccc12)NC(=O)[C@H](CCSC)NC(C)=O)[C@@H](C)CC)C(=O)N[C@@H](CO)C(=O)N[C@@H](Cc1ccccc1)C(=O)N[C@@H](Cc1c[nH]c2ccccc12)C(=O)NCC(=O)O [compound 165] (Ac-MWILISFWG-OH) is ____.
Result block: 102
